Tested on: CHO cells
Experimental Protocol: Growth of CHO cells in transferrin-free CD CHO medium with metal binding compounds
Type: cell-based
Recorded Conditions: 50 μM, third passage, control = 5 μg/mL human holo-transferrin, duplicate cultures
So basically: is mean percentage of control growth under 80%? Then 1 (yes). Not under? Then 0 (no).

In [3]: df
Out[3]:
                                    compound  discrete_label
 0  OC[C@@H](O)[C@@H](O)[C@H](O)[C@@H](O)CO.[Cl][Fe]([Cl])[Cl] [Sorbitol · Ferric Chloride]          0 (no)
 1                           O=c1cc(CO)occ1O         1 (yes)
 2  O=C(O)CN(CCN(CC(=O)O)CC(=O)O)CCN(CC(=O)O)CC(=O)O.O=S(=O)([O-])[O-].[Fe+2]          0 (no)
 3  [Cl][Fe]([Cl])[Cl].c1ccc(Nc2ccccn2)nc1 [2,2-Dipyridylamine · Ferric Chloride]         1 (yes)
 4  NC(CS)C(=O)O.O=S(=O)([O-])[O-].[Fe+2] (stereo not drawn) [Cysteine · Ferrous Sulfate]         1 (yes)
 5     [Cl][Fe]([Cl])[Cl].[O-][n+]1cccc(O)c1         1 (yes)
 6  O=C(O)CN(CC(=O)O)CC(=O)O.[Cl][Fe]([Cl])[Cl] [Nitriloacetic Acid · Ferric Chloride]          0 (no)
 7  [Cl][Fe]([Cl])[Cl] [Ferric Chloride, reference compound]          0 (no)
 8  O=C(O)c1ccc[n+]([O-])c1.[Cl][Fe]([Cl])[Cl] [Nicotinic Acid-N-Oxide · Ferric Chloride]          0 (no)
 9  O=c1cc(CO)occ1O.[Cl][Fe]([Cl])[Cl] [Kojic Acid · Ferric Chloride]          0 (no)
10     O=C(O)c1cccc(O)c1O.[Cl][Fe]([Cl])[Cl]         1 (yes)
11  Cc1ncc(CO)c(C(=O)O)c1O.[Cl][Fe]([Cl])[Cl] [4-Pyridoxic Acid · Ferric Chloride]         1 (yes)
12  NC(CO)C(=O)NO.[Cl][Fe]([Cl])[Cl] (stereo not drawn) [Serine Hydroxamate · Ferric Chloride]          0 (no)
13         O=C(O)c1ccccn1.[Cl][Fe]([Cl])[Cl]          0 (no)
14  NC(CC(=O)O)C(=O)O.[Cl][Fe]([Cl])[Cl] (stereo not drawn) [Aspartic Acid · Ferric Chloride]          0 (no)
15  CCc1occc(=O)c1O [2-Ethyl-3-Hydroxy-4-Pyrone]         1 (yes)

###

System: 293 cells
Experimental Protocol: Growth of 293 cells in transferrin-free 293 SFM with metal binding compounds
Format: cell-based
Recorded Conditions: 25 μM, third passage, control = 5 μg/mL human holo-transferrin, duplicate cultures
Entries annotated with measured mean percentage of control growth
Measurement Type: mean percentage of control growth

In [3]: df
Out[3]:
                                    compound  test_system  reported_value
 0  O=S(=O)([O-])[O-].[Fe+2].[O-][n+]1cccc(O)c1    293 cells            104%
 1  [Cl][Fe]([Cl])[Cl].c1ccc(Nc2ccccn2)nc1 [2,2-Dipyridylamine · Ferric Chloride]    293 cells            118%
 2  [Cl][Fe]([Cl])[Cl] [Ferric Chloride, reference compound]    293 cells             87%
 3  O=S(=O)([O-])[O-].[Fe+2] [Ferrous Sulfate, reference compound]    293 cells             71%
 4  O=C(O)CN(CCN(CC(=O)O)CC(=O)O)CCN(CC(=O)O)CC(=O)O.[Cl][Fe]([Cl])[Cl]    293 cells             79%
 5  NC(CCC(=O)O)C(=O)O.[Cl][Fe]([Cl])[Cl] (stereo not shown) [Glutamic Acid · Ferric Chloride]    293 cells            102%
 6  NC(CC(=O)O)C(=O)O.[Cl][Fe]([Cl])[Cl] (stereo not shown) [Aspartic Acid · Ferric Chloride]    293 cells             81%
 7  NC(CO)C(=O)NO.[Cl][Fe]([Cl])[Cl] (stereo not shown) [Serine Hydroxamate · Ferric Chloride]    293 cells             68%
 8  CC(=O)N[C@@H](CS)C(=O)O.[Cl][Fe]([Cl])[Cl] [N-Acetyl-Cysteine · Ferric Chloride]    293 cells             88%
 9   O=C(O)c1ccccn1.O=S(=O)([O-])[O-].[Fe+2]    293 cells             67%
10  NCC(=O)O.[Cl][Fe]([Cl])[Cl] [Glycine · Ferric Chloride]    293 cells             81%
11  CCc1occc(=O)c1O [2-Ethyl-3-Hydroxy-4-Pyrone]    293 cells             59%
12  O=S(=O)([O-])[O-].OC[C@@H](O)[C@@H](O)[C@H](O)[C@@H](O)CO.[Fe+2] [Sorbitol · Ferrous Sulfate]    293 cells             58%
